- measurement-target: Endothiapepsin (Cryphonectria parasitica)
- Sequence (P11838 whole entry): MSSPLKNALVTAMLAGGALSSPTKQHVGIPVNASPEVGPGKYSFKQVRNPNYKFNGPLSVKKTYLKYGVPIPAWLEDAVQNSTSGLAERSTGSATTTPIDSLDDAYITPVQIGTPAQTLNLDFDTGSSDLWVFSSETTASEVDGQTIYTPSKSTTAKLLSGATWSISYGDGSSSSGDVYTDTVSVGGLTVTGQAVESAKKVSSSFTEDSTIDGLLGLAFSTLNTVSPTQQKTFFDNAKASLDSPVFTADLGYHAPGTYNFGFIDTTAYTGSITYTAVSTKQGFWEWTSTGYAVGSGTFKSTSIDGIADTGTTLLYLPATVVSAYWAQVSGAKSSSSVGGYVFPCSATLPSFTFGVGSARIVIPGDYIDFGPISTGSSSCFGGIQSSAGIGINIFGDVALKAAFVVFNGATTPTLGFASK
- assay-protocol: Inhibition of Cryphonectria parasitica endothiapepsin using 2-aminobenzoyl-Thr-Ile-Nle-Phe(p-NO2)-Gln-Arg-NH2 as substrate assessed as hydrolysis of substrate into 2-aminobenzoyl-Thr-Ile-Nle and Phe(p-NO2)-GLn-Arg-NH2 by fluorescence-based spectrophotometric analysis
value-type: IC50 (µM)

molecule	value-type	unit-abbrev	recorded-measurement
N[C@H](C(=O)N/N=C/C1CCCC1)c1ccc(C(F)(F)F)cc1 (mixture of isomers)	IC50	µM	85
N[C@H](C(=O)N/N=C/c1ccccc1)c1ccc(C(F)(F)F)cc1 (mixture of isomers)	IC50	µM	210
